system: Mycolicibacterium smegmatis; experiment: Antimicrobial activity against Mycobacterium smegmatis assessed as bacterial growth inhibition preincubated with PLE and PMSF for 1 hr measured after 3 days by multimode plate reader analysis; format: functional; details: 72 h, time 3 day
ASSAY READOUT: MIC99 (µg/mL)

Examples from the recorded data:
The molecule "CC[C@@H](COC(=O)C(C)(C)C)NCCN[C@@H](CC)COC(=O)C(C)(C)C.Cl.Cl" , when measured on Mycolicibacterium smegmatis, yielded MIC99 of 6.3

The molecule "CC[C@@H](COC(=O)C1(C)CC1)NCCN[C@@H](CC)COC(=O)C1(C)CC1.Cl.Cl" , when measured on Mycolicibacterium smegmatis, yielded MIC99 of 25

The molecule "CC[C@@H](COC(=O)C1CCCC1)NCCN[C@@H](CC)COC(=O)C1CCCC1.Cl.Cl" , when measured on Mycolicibacterium smegmatis, yielded MIC99 of 1.6

(P) CC[C@@H](CO)NCCN[C@@H](CC)CO.Cl.Cl [ETHAMBUTOL HYDROCHLORIDE]
(Q) CC[C@@H](COC(=O)CC(C)C)NCCN[C@@H](CC)COC(=O)CC(C)C.Cl.Cl
Min MIC99? P | Q # reply format: chosen label
P

(I) CCC(=O)OC[C@H](CC)NCCN[C@@H](CC)COC(=O)CC.Cl.Cl
(II) CC[C@@H](COC(=O)C(C)C)NCCN[C@@H](CC)COC(=O)C(C)C.Cl.Cl
Min MIC99? I | II # reply format: chosen label
I
(I: 0.78 µg/mL, II: 6.3 µg/mL)

(I) CCC(CC)C(=O)OC[C@H](CC)NCCN[C@@H](CC)COC(=O)C(CC)CC.Cl.Cl
(II) CC[C@@H](COC(=O)C1CCC1)NCCN[C@@H](CC)COC(=O)C1CCC1.Cl.Cl
Min MIC99? I | II # reply format: chosen label
I
(I: 0.78 µg/mL, II: 6.2 µg/mL)

* * *

test system: Mycolicibacterium smegmatis; test: Antimicrobial activity against Mycobacterium smegmatis assessed as bacterial growth inhibition measured after 3 days by multimode plate reader analysis; type: functional; settings: 72 h, time 3 day
ASSAY READOUT: MIC99 (µg/mL)

The molecule "CC[C@@H](COC(=O)C1CCCC1)NCCN[C@@H](CC)COC(=O)C1CCCC1.Cl.Cl" , when measured on Mycolicibacterium smegmatis, yielded MIC99 of 6.3

(a) CC[C@@H](COC(=O)C(C)(C)C)NCCN[C@@H](CC)COC(=O)C(C)(C)C.Cl.Cl
(b) CC[C@@H](COC(=O)C1CCC1)NCCN[C@@H](CC)COC(=O)C1CCC1.Cl.Cl
(c) CCC(=O)OC[C@H](CC)NCCN[C@@H](CC)COC(=O)CC.Cl.Cl
Provide the items ranked by increasing MIC99. Answer format: the labels, in the requested order.
c, b, a
(c: 0.78 µg/mL, b: 3.1 µg/mL, a: 6.3 µg/mL)

* * *

test system: Mycolicibacterium smegmatis; test: Antimicrobial activity against Mycobacterium smegmatis assessed as bacterial growth inhibition preincubated with PLE for 1 hr measured after 3 days by multimode plate reader analysis; format: functional; conditions: 72 h, time 3 day
ASSAY READOUT: MIC99 (µg/mL)

Examples from the recorded data:
Reported MIC99 of "CC[C@@H](COC(=O)C(C)(C)C)NCCN[C@@H](CC)COC(=O)C(C)(C)C.Cl.Cl" : 0.78

Reported MIC99 of "CCC(CC)C(=O)OC[C@H](CC)NCCN[C@@H](CC)COC(=O)C(CC)CC.Cl.Cl" : 0.2

Reported MIC99 of "CC[C@@H](COC(=O)C1CCCC1)NCCN[C@@H](CC)COC(=O)C1CCCC1.Cl.Cl" : 0.098

Reported MIC99 of "CC[C@@H](COC(=O)C1CCC1)NCCN[C@@H](CC)COC(=O)C1CCC1.Cl.Cl" : 0.39

Reported MIC99 of CC[C@@H](CO)NCCN[C@@H](CC)CO.Cl.Cl [ETHAMBUTOL HYDROCHLORIDE] : 0.098

(A) CCC(=O)OC[C@H](CC)NCCN[C@@H](CC)COC(=O)CC.Cl.Cl
(B) CC[C@@H](COC(=O)CC(C)C)NCCN[C@@H](CC)COC(=O)CC(C)C.Cl.Cl
Min MIC99? A | B # reply format: chosen label
B
(B: 0.2 µg/mL, A: 0.78 µg/mL)

(1) CC[C@@H](COC(=O)C1(C)CC1)NCCN[C@@H](CC)COC(=O)C1(C)CC1.Cl.Cl
(2) CC[C@@H](COC(=O)C(C)C)NCCN[C@@H](CC)COC(=O)C(C)C.Cl.Cl
Of 1 and 2 , which one carries the higher reported MIC99? # reply format: chosen label
1
